The following compounds are shown together with reported Arp2/3 inhibition reached at saturation values.
# ASSAY_SYSTEM: Arp2/3 (Bos taurus, UniProt A7MB62+P61157)
# Construct: purchased Cytoskeleton, Inc
# TEST_METHOD_NOTES: Pyrene-actin polymerization assay
# Assay type: biochemical, bovine
# RUN_PARAMETERS: 1.5 μM actin, 20 nM Arp2/3, 250 nM N-WASP VCA
Value expressed in %; do not type the unit.

Arp2/3 inhibition reached at saturation reported for this compound Cc1[nH]c2ccccc2c1CCNC(=O)c1ccccc1C(=O)c1ccccc1 : 100

Arp2/3 inhibition reached at saturation reported for this compound Cc1[nH]c2c(Cl)cccc2c1CCNC(=O)c1cc(S(=O)(=O)N(C)C)c(Cl)cc1Cl : 67

Arp2/3 inhibition reached at saturation reported for this compound Cc1[nH]c2ccccc2c1CCNC(=O)c1ccccc1F : 78
